- subject of test: nitrile hydratase (Pseudomonas chlororaphis, UniProt P27763+P27764)
- test: Preservation of nitrile hydration activity of washed cell suspension left standing ice-cooled with stabilizer
- Format: cell-based, Pseudomonas chlororaphis B23 (FERM BP-187)
- run parameters: 120 h; Table 2; 10 mg amide in 5 ml cell suspension, pH 6.5, left standing 5 days ice-cooled; no stabilizer: 42; read-out: % Residual Activity
measurement type: activity at 10 mg (%)

>>> obs_value("NCC(N)=O [Glycine amide]")
63
>>> obs_value("CCCCCC(N)=O [n-Capronamide]")
88
>>> obs_value("C=C(C)C(N)=O [Methacrylamide]")
79
>>> obs_value("NC(=O)CCO [β-Hydroxypropionamide]")
74
>>> obs_value("NC(=O)c1ccccc1 [Benzamide]")
65
>>> obs_value("NC(=O)c1cccnc1 [Nicotinamide]")
59
>>> obs_value("C=CC(N)=O [Acrylamide]")
73
>>> obs_value("CCC(N)=O [Propionamide]")
93
>>> obs_value("CC(O)C(N)=O (stereo not shown) [Lactamide]")
70
>>> obs_value("NCCC(N)=O [β-Aminopropionamide]")
68
>>> obs_value("CCCCC(N)=O [n-Valeramide]")
94
>>> obs_value("NC(=O)CCC(N)=O [Succindiamide]")
68
>>> obs_value("NC(=O)CCCl [β-Chloropropionamide]")
71
>>> obs_value("CCCC(N)=O [n-Butyramide]")
89
>>> obs_value("NC(=O)CC(N)=O [Malondiamide]")
66
>>> obs_value("CC(N)=O [Acetamide]")
67

---

- subject of test: nitrile hydratase (Pseudomonas chlororaphis, UniProt P27763+P27764)
- test: Preservation of nitrile hydration activity of washed cell suspension left standing ice-cooled with stabilizer
- Type: cell-based, Pseudomonas chlororaphis B23 (FERM BP-187)
- run parameters: 120 h, pH 6, read-out: % Residual Activity
Hi, to clarify the labels: 1 (yes) covers activity at 10 mg from 80% upward, 0 (no) covers anything below 80%.

>>> label("CCCCC(=O)O [Valeric acid]")
"1 (yes)"
>>> label("CC(=O)O [Acetic acid]")
"0 (no)"
>>> label("CCC(=O)O [Propionic acid]")
"1 (yes)"
>>> label("O=CO [Formic Acid]")
"1 (yes)"
>>> label("NCCC(=O)O [β-Aminopropionic acid]")
"0 (no)"
>>> label("CC(C)C(=O)O [Isobutyric acid]")
"1 (yes)"

---

- subject of test: nitrile hydratase (Pseudomonas chlororaphis, UniProt P27763+P27764)
- Sequence (P27764 1-200): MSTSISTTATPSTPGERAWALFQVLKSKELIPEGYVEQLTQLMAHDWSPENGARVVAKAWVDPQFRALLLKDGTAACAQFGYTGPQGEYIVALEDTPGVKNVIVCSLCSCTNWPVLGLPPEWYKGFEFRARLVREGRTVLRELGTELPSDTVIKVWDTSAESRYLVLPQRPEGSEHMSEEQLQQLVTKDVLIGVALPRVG
- Sequence (P27763 1-220): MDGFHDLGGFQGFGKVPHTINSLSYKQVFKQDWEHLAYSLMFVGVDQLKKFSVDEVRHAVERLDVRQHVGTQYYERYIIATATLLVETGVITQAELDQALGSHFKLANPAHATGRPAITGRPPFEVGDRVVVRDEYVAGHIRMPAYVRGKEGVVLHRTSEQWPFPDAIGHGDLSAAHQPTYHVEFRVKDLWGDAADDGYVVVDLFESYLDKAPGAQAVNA
- test: Preservation of nitrile hydration activity of washed cell suspension left standing ice-cooled with stabilizer
- Format: cell-based, Pseudomonas chlororaphis B23 (FERM BP-187)
- run parameters: 120 h; Table 3; 10 mg organic acid in 5 ml cell suspension, pH 6.0, left standing 5 days ice-cooled; no stabilizer: 43; read-out: % Residual Activity
Hi, to clarify the labels: Yes covers activity at 10 mg from 80% upward, No covers anything below 80%.

>>> label("O=C(O)CC(=O)O")
"No"
>>> label("O=C(O)CC(=O)C(=O)O")
"Yes"
>>> label("O=CC(=O)O")
"Yes"
>>> label("C=CC(=O)O")
"No"
>>> label("O=C(O)CC(O)(CC(=O)O)C(=O)O")
"No"
>>> label("O=C(O)CCl")
"No"
>>> label("CCCCCC(=O)O")
"Yes"
>>> label("O=C(O)C(O)CO (racemic)")
"Yes"
>>> label("O=C(O)CO")
"No"
>>> label("O=C(O)c1ccccc1")
"No"
